IC50 values, listed per item
# system tested: Calpain-2 catalytic subunit (Sus scrofa)
# Sequence (P43367 whole entry): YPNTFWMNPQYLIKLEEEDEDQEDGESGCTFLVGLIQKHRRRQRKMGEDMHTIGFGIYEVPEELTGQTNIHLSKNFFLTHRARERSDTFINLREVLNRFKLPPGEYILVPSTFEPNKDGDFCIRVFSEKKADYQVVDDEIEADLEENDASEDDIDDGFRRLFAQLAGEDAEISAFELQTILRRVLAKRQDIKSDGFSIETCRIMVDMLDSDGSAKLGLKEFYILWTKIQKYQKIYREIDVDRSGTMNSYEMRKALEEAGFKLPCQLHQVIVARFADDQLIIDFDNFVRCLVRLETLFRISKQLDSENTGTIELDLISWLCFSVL
# measurement protocol: m-calpain protease blockers, concentration series – biochemical, fluorogenic peptide substrate, dose response (AID 1420)
# Assay type: functional
Calls of active or inactive are those of the source.

{"compound": "OC(COc1ccccc1)Cn1c2ccccc2c2ccccc21 (stereo unspecified)", "IC50": "7.48 µM (not active)"}
{"compound": "Cn1nnnc1SC(C(=O)Nc1cccc(C(F)(F)F)c1)c1ccccc1 (stereo unspecified)", "IC50": "16.4 µM (active)"}
{"compound": "COC(=O)c1ccc(NC2(C#N)C(=O)Nc3ccccc32)cc1 (stereo unspecified)", "IC50": "> 50 µM (not active)"}
{"compound": "Oc1nc(SCc2ccccc2Cl)nc(-c2ccc(Cl)cc2)n1", "IC50": "4.51 µM (not active)"}
{"compound": "COc1ccc(NC(=O)CN2CCN(c3nc(-c4ccc(F)cc4)cs3)CC2)c(OC)c1", "IC50": "5.73 µM (not active)"}
{"compound": "O=C1CC(c2cccc(Br)c2)c2cc3c(cc2N1)CCC3 (stereo unspecified)", "IC50": "> 50 µM (not active)"}

----------
# System: H4
# measurement protocol: Luminescence Cell-Based Dose Response HTS to Identify Activators of 5'UTR Stem-Loop Driven Prion Protein mRNA Translation in H4 Neuroglioblastoma Cells. [Related pubchem assays: 1829 (Project Summary), 1814 (Primary HTS)]
# Format: functional
# settings: Homo sapiens
The source made the active and inactive calls.
Each entry below carries its reported EC50.
measurement kind: EC50

{"smiles representation": "O=c1cccccc1NN=C1CCCCCC1", "system tested": "H4", "measurement kind": "EC50", "experimental value": "> 120 µM (not active)"}
{"smiles representation": "COc1cc(OC)cc(C(=O)Nc2ccccc2C(=O)N2CCCC2)c1", "system tested": "H4", "measurement kind": "EC50", "experimental value": "> 120 µM (not active)"}
{"smiles representation": "Nc1nnnn1/N=C/C(Br)=C/c1ccccc1", "system tested": "H4", "measurement kind": "EC50", "experimental value": "> 120 µM (not active)"}
{"smiles representation": "Brc1ccc2oc(-c3cc[nH]n3)cc2c1", "system tested": "H4", "measurement kind": "EC50", "experimental value": "93.8 µM (active)"}
{"smiles representation": "Cc1csc(NC(=O)C2=COCCO2)n1", "system tested": "H4", "measurement kind": "EC50", "experimental value": "> 120 µM (not active)"}
{"smiles representation": "CSC1=NN=C(c2ccc(C(C)(C)C)cc2)NN1", "system tested": "H4", "measurement kind": "EC50", "experimental value": "16.9 µM (active)"}

----------
# system tested: Prothrombin (Homo sapiens, UniProt P00734)
# measurement protocol: Thrombin 1536 HTS Dose Response Confirmation. [Related pubchem assays: 1046 (Thrombin 1536 HTS; hits were confirmed in this assay)]
# Assay type: functional
The source made the active and inactive calls.

{"smiles representation": "CCCCOC(=O)n1ccc(C(=O)Nc2ccccc2OC)n1", "system tested": "Prothrombin (Homo sapiens, UniProt P00734)", "IC50": "13.8 µM (active)"}
{"smiles representation": "Nc1nc(-c2ccco2)nn1C(=O)c1ccccc1", "system tested": "Prothrombin (Homo sapiens, UniProt P00734)", "IC50": "0.926 µM (active)"}
{"smiles representation": "OC1(c2ccc(F)cc2)CCN(Cc2nnnn2Cc2cccs2)CC1", "system tested": "Prothrombin (Homo sapiens, UniProt P00734)", "IC50": "> 50 µM (not active)"}
{"smiles representation": "CSc1nc2cc3c(cc2n1C(=O)c1ccc(C)cc1)OCCO3", "system tested": "Prothrombin (Homo sapiens, UniProt P00734)", "IC50": "0.556 µM (active)"}
